target: furin, P09958; test: furin cleavage Z-score vs untreated control; higher = more cleavage, active = 3.5 or more, inactive = 1 or less, 8 variable residues between constant flanks; conditions: 7.5 min;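 also: purified furin at 1:10 enzyme:substrate in 50 mM HEPES pH 7.5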
Sequence (P09958 whole entry): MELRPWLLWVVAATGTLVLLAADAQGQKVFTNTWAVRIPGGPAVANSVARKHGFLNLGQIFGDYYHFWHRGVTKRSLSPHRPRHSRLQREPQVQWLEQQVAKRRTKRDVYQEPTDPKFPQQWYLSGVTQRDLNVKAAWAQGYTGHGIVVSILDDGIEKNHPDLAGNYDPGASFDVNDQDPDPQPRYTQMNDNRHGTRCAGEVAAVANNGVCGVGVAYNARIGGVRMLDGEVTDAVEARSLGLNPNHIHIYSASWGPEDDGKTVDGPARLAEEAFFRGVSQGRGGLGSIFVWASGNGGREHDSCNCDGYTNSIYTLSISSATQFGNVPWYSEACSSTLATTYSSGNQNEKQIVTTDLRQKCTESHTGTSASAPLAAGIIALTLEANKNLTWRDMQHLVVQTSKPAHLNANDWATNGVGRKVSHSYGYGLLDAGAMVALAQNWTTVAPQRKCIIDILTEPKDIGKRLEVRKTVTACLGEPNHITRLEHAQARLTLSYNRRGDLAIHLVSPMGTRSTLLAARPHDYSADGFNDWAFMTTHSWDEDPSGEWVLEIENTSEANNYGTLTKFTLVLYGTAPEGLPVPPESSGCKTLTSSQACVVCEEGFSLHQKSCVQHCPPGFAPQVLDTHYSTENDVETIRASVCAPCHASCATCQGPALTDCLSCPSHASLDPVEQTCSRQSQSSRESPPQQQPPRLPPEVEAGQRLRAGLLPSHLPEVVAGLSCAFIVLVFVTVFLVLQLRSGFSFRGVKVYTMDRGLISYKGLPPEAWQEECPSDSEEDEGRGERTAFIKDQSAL
The list shows a part of the results. The true hit rate is not given.
Outcome codes: class 1 (active), class 0 (inactive)

# SEQ, DISCRETE_LABEL
measured = [
    ("CALDPQARVAAGNASASA [HC1493]", "class 0"),
    ("CAKCPCQVPSAGNASASA [HC1216]", "class 0"),
    ("CAWVPCHRPSAGNASASA [HC2308]", "class 0"),
    ("CAKCPRQRRAAGNASASA [FS-445]", "class 1"),
]
